Origin of the recorded values: a collection of fitness landscapes (doi:10.1016/j.celrep.2020.107928)

B1: Caulobacter ParB omega fusion; a variant is named by its letters at X, in order, B8GW30 (parent)
chain: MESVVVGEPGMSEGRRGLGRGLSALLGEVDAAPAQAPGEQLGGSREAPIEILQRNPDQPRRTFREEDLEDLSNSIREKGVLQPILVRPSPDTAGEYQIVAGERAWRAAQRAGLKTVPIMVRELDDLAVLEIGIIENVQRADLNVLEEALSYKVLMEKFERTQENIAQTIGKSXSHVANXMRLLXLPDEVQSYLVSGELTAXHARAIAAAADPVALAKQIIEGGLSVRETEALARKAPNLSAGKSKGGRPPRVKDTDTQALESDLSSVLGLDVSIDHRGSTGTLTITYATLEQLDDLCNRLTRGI

# Variants of: B1
# Assay Notes: one-hybrid fitness for binding parS DNA (scaled: cognate 1, non-cognate 0); higher = stronger binding
# Condition Parameters: with parS DNA site
Whole data set: some 81,000 sequences, median “one-hybrid fitness for binding parS DNA” near -0.17, cut for the highest 2% near 0.51. The sample holds the highest values, similar sequences and a random draw of the others, so the mix is not that of the screen.
# one-hybrid fitness for binding parS DNA annotations
Result Type: one-hybrid fitness for binding parS DNA

[[record]]
variant = "RRDR"
result_type = "one-hybrid fitness for binding parS DNA"
value_qualifier = "≤"
meas_value = 0.2

[[record]]
variant = "EKER"
result_type = "one-hybrid fitness for binding parS DNA"
value_qualifier = "≤"
meas_value = 0.2

[[record]]
variant = "RRCC"
result_type = "one-hybrid fitness for binding parS DNA"
value_qualifier = "="
meas_value = 0.619

[[record]]
variant = "RFVA"
result_type = "one-hybrid fitness for binding parS DNA"
value_qualifier = "="
meas_value = 0.44

[[record]]
variant = "RRKK"
result_type = "one-hybrid fitness for binding parS DNA"
value_qualifier = "≤"
meas_value = 0.2

[[record]]
variant = "RSLD"
result_type = "one-hybrid fitness for binding parS DNA"
value_qualifier = "≤"
meas_value = 0.2

[[record]]
variant = "RWYA"
result_type = "one-hybrid fitness for binding parS DNA"
value_qualifier = "="
meas_value = 0.348

[[record]]
variant = "RYWS"
result_type = "one-hybrid fitness for binding parS DNA"
value_qualifier = "="
meas_value = 0.99

[[record]]
variant = "DWAG"
result_type = "one-hybrid fitness for binding parS DNA"
value_qualifier = "≤"
meas_value = 0.2

[[record]]
variant = "RWKA"
result_type = "one-hybrid fitness for binding parS DNA"
value_qualifier = "="
meas_value = 0.574

[[record]]
variant = "RYPC"
result_type = "one-hybrid fitness for binding parS DNA"
value_qualifier = "="
meas_value = 0.477

[[record]]
variant = "QPAA"
result_type = "one-hybrid fitness for binding parS DNA"
value_qualifier = "≤"
meas_value = 0.2

[[record]]
variant = "HSNS"
result_type = "one-hybrid fitness for binding parS DNA"
value_qualifier = "≤"
meas_value = 0.2

[[record]]
variant = "RYPD"
result_type = "one-hybrid fitness for binding parS DNA"
value_qualifier = "≤"
meas_value = 0.2

[[record]]
variant = "RACT"
result_type = "one-hybrid fitness for binding parS DNA"
value_qualifier = "="
meas_value = 0.852

[[record]]
variant = "RYLH"
result_type = "one-hybrid fitness for binding parS DNA"
value_qualifier = "≤"
meas_value = 0.2

[[record]]
variant = "RRVG"
result_type = "one-hybrid fitness for binding parS DNA"
value_qualifier = "="
meas_value = 0.836

[[record]]
variant = "RAHT"
result_type = "one-hybrid fitness for binding parS DNA"
value_qualifier = "="
meas_value = 0.928

[[record]]
variant = "RSLS"
result_type = "one-hybrid fitness for binding parS DNA"
value_qualifier = "="
meas_value = 1.01

[[record]]
variant = "RDWT"
result_type = "one-hybrid fitness for binding parS DNA"
value_qualifier = "≤"
meas_value = 0.2

[[record]]
variant = "HRKK"
result_type = "one-hybrid fitness for binding parS DNA"
value_qualifier = "≤"
meas_value = 0.2

[[record]]
variant = "RYPP"
result_type = "one-hybrid fitness for binding parS DNA"
value_qualifier = "≤"
meas_value = 0.2

[[record]]
variant = "RRDC"
result_type = "one-hybrid fitness for binding parS DNA"
value_qualifier = "="
meas_value = 0.701

[[record]]
variant = "RHKA"
result_type = "one-hybrid fitness for binding parS DNA"
value_qualifier = "="
meas_value = 0.692

[[record]]
variant = "RRCF"
result_type = "one-hybrid fitness for binding parS DNA"
value_qualifier = "≤"
meas_value = 0.2

[[record]]
variant = "RPLS"
result_type = "one-hybrid fitness for binding parS DNA"
value_qualifier = "≤"
meas_value = 0.2

[[record]]
variant = "RAYR"
result_type = "one-hybrid fitness for binding parS DNA"
value_qualifier = "≤"
meas_value = 0.2

[[record]]
variant = "RPEH"
result_type = "one-hybrid fitness for binding parS DNA"
value_qualifier = "≤"
meas_value = 0.2

[[record]]
variant = "RRVQ"
result_type = "one-hybrid fitness for binding parS DNA"
value_qualifier = "≤"
meas_value = 0.2

[[record]]
variant = "RSWT"
result_type = "one-hybrid fitness for binding parS DNA"
value_qualifier = "="
meas_value = 0.756

[[record]]
variant = "HRSN"
result_type = "one-hybrid fitness for binding parS DNA"
value_qualifier = "≤"
meas_value = 0.2

[[record]]
variant = "RAYM"
result_type = "one-hybrid fitness for binding parS DNA"
value_qualifier = "="
meas_value = 0.324

[[record]]
variant = "REWT"
result_type = "one-hybrid fitness for binding parS DNA"
value_qualifier = "≤"
meas_value = 0.2

[[record]]
variant = "LIRC"
result_type = "one-hybrid fitness for binding parS DNA"
value_qualifier = "≤"
meas_value = 0.2

[[record]]
variant = "RRDQ"
result_type = "one-hybrid fitness for binding parS DNA"
value_qualifier = "≤"
meas_value = 0.2

[[record]]
variant = "RAYT"
result_type = "one-hybrid fitness for binding parS DNA"
value_qualifier = "="
meas_value = 0.904

[[record]]
variant = "RCLS"
result_type = "one-hybrid fitness for binding parS DNA"
value_qualifier = "="
meas_value = 1.04

[[record]]
variant = "RRVR"
result_type = "one-hybrid fitness for binding parS DNA"
value_qualifier = "≤"
meas_value = 0.2

[[record]]
variant = "RYPS"
result_type = "one-hybrid fitness for binding parS DNA"
value_qualifier = "="
meas_value = 0.635

[[record]]
variant = "RMWH"
result_type = "one-hybrid fitness for binding parS DNA"
value_qualifier = "="
meas_value = 0.231

[[record]]
variant = "RYWH"
result_type = "one-hybrid fitness for binding parS DNA"
value_qualifier = "≤"
meas_value = 0.2

[[record]]
variant = "CVQT"
result_type = "one-hybrid fitness for binding parS DNA"
value_qualifier = "≤"
meas_value = 0.2

[[record]]
variant = "RMWT"
result_type = "one-hybrid fitness for binding parS DNA"
value_qualifier = "="
meas_value = 0.904

[[record]]
variant = "RWVA"
result_type = "one-hybrid fitness for binding parS DNA"
value_qualifier = "="
meas_value = 0.329

[[record]]
variant = "RAQF"
result_type = "one-hybrid fitness for binding parS DNA"
value_qualifier = "="
meas_value = 0.229

[[record]]
variant = "RPWT"
result_type = "one-hybrid fitness for binding parS DNA"
value_qualifier = "≤"
meas_value = 0.2

